Values from PubChem BioAssay AID179

Test system: CEM cells HIV-1 protection, formazan growth assay
Experimental Details: NCI AIDS Antiviral Assay
Activity calls are given as the source filed them.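 Rule for the calls: active = compounds giving half or more protection of infected cells from virus-caused growth loss, again on retest; inactive = the rest.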
Value Type: outcome

[[record]]
molecule = "COc1ccc2[nH]c3c(c2c1)[C@H](c1ccccc1)C[C@@H]1C(=O)N(c2ccccc2)C(=O)[C@H]31"
value_type = "outcome"
result = "inactive"

[[record]]
molecule = "O=C1C2C3C=C4c5ccccc5N(c5ccccc5)C4(C2C(=O)N1Cc1ccccc1)C1C(=O)N(Cc2ccccc2)C(=O)C31 (stereo not given)"
value_type = "outcome"
result = "inactive"

[[record]]
molecule = "C(#CP(c1ccccc1)c1ccccc1)P(C#CP(c1ccccc1)c1ccccc1)c1ccccc1"
value_type = "outcome"
result = "inactive"

[[record]]
molecule = "N/C(=N/N=C/c1ccc(Cl)c([N+](=O)[O-])c1)NO"
value_type = "outcome"
result = "inactive"


outcome in this record for S=C(N/N=C/c1ccccc1)NC12CC3CC(CC(C3)C1)C2 : inactive

So, C[C@@]1(O)CC[C@]2(C)C3CCCC3[C@H]12 (stereo not given in full) ? Its outcome was inactive

Recorded outcome (molecule C/C1=C/COC(=O)CC/C(C)=C/CC1 ): inactive
